# assayed.target: T1, recombinant human IL-23R/Fc chimera (R&D Systems) (human, UniProt Q5VWK5 24-355)
# T1 construct: Bought; also called rhIL23RFc
# T1 sequence (looked up): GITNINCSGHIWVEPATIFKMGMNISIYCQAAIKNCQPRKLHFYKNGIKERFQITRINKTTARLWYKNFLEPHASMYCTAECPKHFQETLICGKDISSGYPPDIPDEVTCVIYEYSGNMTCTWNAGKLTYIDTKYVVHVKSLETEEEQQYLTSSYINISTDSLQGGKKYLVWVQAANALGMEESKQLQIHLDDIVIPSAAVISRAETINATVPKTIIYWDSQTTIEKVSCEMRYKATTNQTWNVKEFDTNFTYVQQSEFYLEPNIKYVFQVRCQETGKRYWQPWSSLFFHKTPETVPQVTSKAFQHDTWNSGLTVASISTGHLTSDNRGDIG
# assay.procedure: competition ELISA vs IL-23
I'd be grateful if you could share measured Ratio IC50 to 056-53.H4E IC50 for these entries.
Form field (numeric): enter value without unit.

Asked: May I ask what Ratio IC50 to 056-53.H4E IC50 has been recorded for 101-51-1A5 ATRIMER complex (designed binder, Forms a homotrimer through the tetranectin coiled coil; one protomer is given., not shown: C-terminal tag: His/Myc (pANA4) or HA-StrepII (pANA10)) EPPTQKPKKIVNAKKDVVNTKMFEELKSRLDTLAQEVALLKEQQALQTVCLKGTKVHMKCFLAFTQTKTFHEASEDCISRGGTLSTPQTGSENDALYEYLRQSVGNEAEIWLGLNGSALTNTWVDMTGARIAYKNWENGHEPQPRGGFGYFGENCAVLSGAANGKWFDKRCRDQLPYICQFGIV ?
Given back: 1

Asked: Return reported Ratio IC50 to 056-53.H4E IC50; argument: 101-51-1A10 ATRIMER complex (designed binder, Forms a homotrimer through the tetranectin coiled coil; one protomer is given., not shown: C-terminal tag: His/Myc (pANA4) or HA-StrepII (pANA10)) EPPTQKPKKIVNAKKDVVNTKMFEELKSRLDTLAQEVALLKEQQALQTVCLKGTKVHMKCFLAFTQTKTFHEASEDCISRGGTLSTPQTGSENDALYEYLRQSVGNEAEIWLGLNGSALTNTWVDMTGARIAYKNWEHPLPPQPSGGFGYFGENCAVLSGAANGKWFDKRCRDQLPYICQFGIV
Given back: 8.7

Asked: Please give the measured Ratio IC50 to 056-53.H4E IC50 for this binder: 105-20-2C7 ATRIMER complex (designed binder, not shown: small tags and cut ends) EPPTQKPKKIVNAKKDVVNTKMFEELKSRLDTLAQEVALLKEQQALQTVCLKGTKVHMKCFLAFTQTKTFHEASEDCISRGGTLSTPQTGSENDALYEYLRQSVGNEAEIWLGLNGSVTTDTWVDMTGARIAYKNWETEITAQPDGGFGYFGENCAVLSGAANGKWFDKRCRDQLPYICQFGIV
Given back: 3.5

Asked: Form field: reported Ratio IC50 to 056-53.H4E IC50 of 105-08-2H6 ATRIMER complex (designed binder) EPPTQKPKKIVNAKKDVVNTKMFEELKSRLDTLAQEVALLKEQQALQTVCLKGTKVHMKCFLAFTQTKTFHEASEDCISRGGTLSTPQTGSENDALYEYLRQSVGNEAEIWLGLNGSPVTGTWVDMTGARIAYKNWETEITAQPDGGFGYFGENCAVLSGAANGKWFDKRCRDQLPYICQFGIV
Given back: 2

Asked: Query: Ratio IC50 to 056-53.H4E IC50; subject: 105-08-1G2 ATRIMER complex (designed binder) EPPTQKPKKIVNAKKDVVNTKMFEELKSRLDTLAQEVALLKEQQALQTVCLKGTKVHMKCFLAFTQTKTFHEASEDCISRGGTLSTPQTGSENDALYEYLRQSVGNEAEIWLGLNGSSKTNTWVDMTGARIAYKNWETEITAQPDGGWGYFGENCAVLSGAANGKWFDKRCRDQLPYICQFGIV
Given back: 5.5

Asked: Consider the binder shown here: 105-08-1A8 ATRIMER complex (designed binder) EPPTQKPKKIVNAKKDVVNTKMFEELKSRLDTLAQEVALLKEQQALQTVCLKGTKVHMKCFLAFTQTKTFHEASEDCISRGGTLSTPQTGSENDALYEYLRQSVGNEAEIWLGLNGSPRTNTWVDMTGARIAYKNWETEITAQPDGGFGVFGENCAVLSGAANGKWFDKRCRDQLPYICQFGIV What is its recorded Ratio IC50 to 056-53.H4E IC50?
Given back: 1.6

Asked: // Ratio IC50 to 056-53.H4E IC50 lookup, key: 105-08-1C11 ATRIMER complex (designed binder, ATRIMER complex: homotrimer of three copies of this chain, joined by the tetranectin coiled coil, not shown: C-terminal tag: Myc/His (pANA4) or HA-StrepII (pANA10)) EPPTQKPKKIVNAKKDVVNTKMFEELKSRLDTLAQEVALLKEQQALQTVCLKGTKVHMKCFLAFTQTKTFHEASEDCISRGGTLSTPQTGSENDALYEYLRQSVGNEAEIWLGLNGSSRTDTWVDMTGARIAYKNWETEITAQPDGGFGYFGENCAVLSGAANGKWFDKRCRDQLPYICQFGIV
Given back: 2.8

Asked: Ratio IC50 to 056-53.H4E IC50 for 105-08-2C6 ATRIMER complex (designed binder) EPPTQKPKKIVNAKKDVVNTKMFEELKSRLDTLAQEVALLKEQQALQTVCLKGTKVHMKCFLAFTQTKTFHEASEDCISRGGTLSTPQTGSENDALYEYLRQSVGNEAEIWLGLNGSQRTDTWVDMTGARIAYKNWETEITAQPDGGWGYFGENCAVLSGAANGKWFDKRCRDQLPYICQFGIV ?
Given back: 3.6
